Measured values drawn from patent US20260116921A1 for this set.

Assay: in vitro
Conditions: human, 20% fecal homogenate (supernatant), anaerobic, pH 6.8
The entries below come with measured half-life at 20 μM values attached.

{"columns": ["structure_as_smiles", "outcome_measure", "test_value"],
 "data": [
  ["CC[C@H](C)[C@H](NC(=O)[C@H](CC(N)=O)NC(=O)[C@H](CCCCNC(C)=O)NC(=O)[C@](C)(CCCCN)NC(=O)[C@H](Cc1ccc2ccccc2c1)NC(=O)[C@H](Cc1ccc(OCCN)cc1)NC(=O)[C@H]1NC(=O)[C@H](CCCCNC(C)=O)NC(=O)[C@H](Cc2c[nH]c3c(C)cccc23)NC(=O)[C@H]([C@@H](C)O)NC(=O)[C@H](CC(N)=O)NC(=O)[C@@H](NC(C)=O)C(C)(C)SSC1(C)C)C(N)=O", "half-life at 20 μM", "> 24 h"],
  ["CCC(CC)(NC(=O)[C@H](Cc1ccc2ccccc2c1)NC(=O)[C@H](Cc1ccc(OCCN)cc1)NC(=O)[C@H]1NC(=O)[C@H](CCC(N)=O)NC(=O)[C@H](Cc2c[nH]c3c(C)cccc23)NC(=O)[C@H]([C@@H](C)O)NC(=O)[C@H](CC(N)=O)NC(=O)[C@@H](NC(C)=O)C(C)(C)SSC1(C)C)C(=O)N[C@@H](CCCCNC(C)=O)C(=O)N[C@@H](CC(N)=O)C(=O)NCCC(N)=O", "half-life at 20 μM", "> 24 h"]
]}

Let us move to another entry and its half-life at 20 μM.
Given the molecule `CC(=O)NCCCC[C@@H]1NC(=O)[C@H](Cc2c[nH]c3c(C)cccc23)NC(=O)[C@H]([C@@H](C)O)NC(=O)[C@H](CC(N)=O)NC(=O)[C@@H](NC(C)=O)C(C)(C)SSC(C)(C)[C@@H](C(=O)N[C@@H](Cc2ccc(OCCN)cc2)C(=O)N[C@@H](Cc2ccc3ccccc3c2)C(=O)N[C@@](C)(CCCCN)C(=O)N[C@@H](CCCCNC(C)=O)C(=O)N[C@@H](CC(N)=O)C(=O)N[C@@H](CCCNC(=N)N)C(N)=O)NC1=O` , what is its reported half-life at 20 μM?
1 h

* * *

Here, each record is paired with measured half-life at 20 μM data.
Assay: in vitro
Conditions: both, SD, rat, plasma (EDTA)
Please reply with the bare figure in h and do not write the unit itself.

# example entries with known answers
{"columns": ["structure_as_smiles", "half-life at 20 μM [h]"],
 "data": [
  ["CC(=O)NCCCC[C@H](NC(=O)[C@](C)(CC(C)C)NC(=O)[C@H](Cc1ccc2ccccc2c1)NC(=O)[C@H](Cc1ccc(OCCN)cc1)NC(=O)[C@H]1NC(=O)[C@H](CCC(N)=O)NC(=O)[C@H](Cc2c[nH]c3c(C)cccc23)NC(=O)[C@H]([C@@H](C)O)NC(=O)[C@H](CC(N)=O)NC(=O)[C@@H](NC(C)=O)C(C)(C)SSC1(C)C)C(=O)N[C@@H](CO)C(=O)NCCC(N)=O", 2],
  ["CC(=O)NCCCC[C@@H]1NC(=O)[C@H](Cc2c[nH]c3c(C)cccc23)NC(=O)[C@H]([C@@H](C)O)NC(=O)[C@H](CC(N)=O)NC(=O)[C@@H](NC(C)=O)C(C)(C)SSC(C)(C)[C@@H](C(=O)N[C@@H](Cc2ccc(OCCN)cc2)C(=O)N[C@@H](Cc2ccc3ccccc3c2)C(=O)N[C@@](C)(CCCCN)C(=O)N[C@@H](CCCCNC(C)=O)C(=O)N[C@@H](CC(N)=O)C(=O)N2CCC[C@@H]2C(N)=O)NC1=O", 12]
]}

# half-life at 20 μM lookup, item `CC(=O)NCCCC[C@H](NC(=O)[C@](C)(CC(C)C)NC(=O)[C@H](Cc1ccc2ccccc2c1)NC(=O)[C@H](Cc1ccc(OCCN)cc1)NC(=O)[C@H]1NC(=O)[C@H](CCC(N)=O)NC(=O)[C@H](Cc2c[nH]c3c(C)cccc23)NC(=O)[C@H]([C@@H](C)O)NC(=O)[C@H](CC(N)=O)NC(=O)[C@@H](NC(C)=O)C(C)(C)SSC1(C)C)C(=O)N(C)[C@@H](C)C(=O)NCCC(N)=O`
9

Item under review: `CC(=O)N[C@@H]1C(=O)N[C@@H](CC(N)=O)C(=O)N[C@@H]([C@@H](C)O)C(=O)N[C@@H](Cc2c[nH]c3c(C)cccc23)C(=O)N[C@@H](CCC(N)=O)C(=O)N[C@H](C(=O)N[C@@H](Cc2ccc(OCCN)cc2)C(=O)N[C@@H](Cc2ccc3ccccc3c2)C(=O)N[C@@](C)(CC(C)C)C(=O)NCC(=O)N2CCC[C@H]2C(=O)NCCC(N)=O)C(C)(C)SSC1(C)C` . Reported half-life at 20 μM?
3

* * *

Experiment: in vitro
Type: in vitro ADME
Design: dose or concentration left out as unconfirmed
Details: simulated intestinal fluid (SIF) with pancreatin, pH 6.8, 37° C., § matrix is 100 fold dilution of standard SIF concentration, read-out: SIF t½ (converted)
outcome_measure: half-life (min)
Respond numerically; units are min and should not be typed.

{"columns": ["compound", "unit_spec", "half-life"],
 "data": [
  ["CC(=O)NCCCC[C@@H]1NC(=O)[C@H](Cc2c[nH]c3c(C)cccc23)NC(=O)[C@H]([C@@H](C)O)NC(=O)[C@H](CC(N)=O)NC(=O)[C@@H](NC(C)=O)C(C)(C)SSC(C)(C)[C@@H](C(=O)N[C@@H](Cc2ccc(OCCN)cc2)C(=O)N[C@@H](Cc2ccc3ccccc3c2)C(=O)N[C@@](C)(CCCCN)C(=O)N[C@@H](CCCCNC(C)=O)C(=O)N[C@@H](CC(N)=O)C(=O)N[C@@H](Cc2c[nH]cn2)C(N)=O)NC1=O [compound 248]", "min", 180],
  ["CC(=O)NCCCC[C@H](NC(=O)[C@](C)(CCCN)NC(=O)[C@H](Cc1ccc2ccccc2c1)NC(=O)[C@H](Cc1ccc(OCCN)cc1)NC(=O)[C@H]1NC(=O)[C@H](CCC(N)=O)NC(=O)[C@H](Cc2c[nH]c3c(C)cccc23)NC(=O)[C@H]([C@@H](C)O)NC(=O)[C@H](CC(N)=O)NC(=O)[C@@H](NC(C)=O)C(C)(C)SSC1(C)C)C(=O)N[C@@H](CC(N)=O)C(=O)NCCC(N)=O [compound 278]", "min", 1140],
  ["CCC(CC)(NC(=O)[C@H](Cc1ccc2ccccc2c1)NC(=O)[C@H](Cc1ccc(OCCN)cc1)NC(=O)[C@H]1NC(=O)[C@H](CCC(N)=O)NC(=O)[C@H](Cc2c[nH]c3c(C)cccc23)NC(=O)[C@H]([C@@H](C)O)NC(=O)[C@H](CC(N)=O)NC(=O)[C@@H](NC(C)=O)C(C)(C)SSC1(C)C)C(=O)N[C@@H](CCCCNC(C)=O)C(=O)N[C@@H](CC(N)=O)C(=O)NCCC(N)=O [compound 276]", "min", 780]
]}

Consider the additional compound presented here.
# half-life lookup, item COc1cccc2c(C[C@@H]3NC(=O)[C@H]([C@@H](C)O)NC(=O)[C@H](CC(N)=O)NC(=O)[C@@H](NC(C)=O)C(C)(C)SSC(C)(C)[C@@H](C(=O)N[C@@H](Cc4ccc(OCCN)cc4)C(=O)N[C@@H](Cc4ccc5ccccc5c4)C(=O)N[C@@](C)(CCCCN)C(=O)N[C@@H](CCCCNC(C)=O)C(=O)N[C@@H](CC(N)=O)C(=O)N[C@H](CC(C)C)C(N)=O)NC(=O)[C@H](CCCCNC(C)=O)NC3=O)c[nH]c12 [compound 288]
720

* * *

Biological target: IL-23R (Homo sapiens)
Sequence (Q5VWK5 24-629): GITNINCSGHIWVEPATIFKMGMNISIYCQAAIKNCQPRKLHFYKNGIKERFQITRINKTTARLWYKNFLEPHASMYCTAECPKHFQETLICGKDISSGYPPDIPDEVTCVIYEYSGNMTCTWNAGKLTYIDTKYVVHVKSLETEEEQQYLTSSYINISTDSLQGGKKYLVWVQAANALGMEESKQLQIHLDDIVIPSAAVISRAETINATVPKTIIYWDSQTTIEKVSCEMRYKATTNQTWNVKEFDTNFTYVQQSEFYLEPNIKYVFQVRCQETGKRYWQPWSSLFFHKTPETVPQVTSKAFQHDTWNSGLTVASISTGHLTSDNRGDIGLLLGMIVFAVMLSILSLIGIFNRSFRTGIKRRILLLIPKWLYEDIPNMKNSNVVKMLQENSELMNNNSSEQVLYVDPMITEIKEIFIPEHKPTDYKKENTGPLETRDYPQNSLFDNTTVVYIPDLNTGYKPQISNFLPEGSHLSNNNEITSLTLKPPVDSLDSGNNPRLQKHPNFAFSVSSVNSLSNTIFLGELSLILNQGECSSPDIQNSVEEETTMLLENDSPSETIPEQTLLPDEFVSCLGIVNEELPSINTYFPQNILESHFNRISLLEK
Test: DB cells IL23R pSTAT3 cell assay (pStat3 HTRF)
Assay type: cell-based
Details: Table E3; DB cells, IL-23 0.5 nM, 30 minutes at 37° C.; read-out: pStat3 HTRF (IC50)
Bridge positions count the residues as written; N and C are the ends. Square brackets hold non-standard residues; d marks the D form. Peptide text beside a SMILES is read from it. Trp(7-Me) = Cc1cccc2c(C[C@H](N)C(=O)O)c[nH]c12; 2Nal = N[C@@H](Cc1ccc2ccccc2c1)C(=O)O; Pen = CC(C)(S)[C@H](N)C(=O)O; αMeK = C[C@](N)(CCCCN)C(=O)O
Here, each record is paired with measured IC50 data.

{"columns": ["compound", "target_under_test", "IC50"],
 "data": [
  ["CC(=O)NCCCC[C@H](NC(=O)[C@](C)(CC(C)C)NC(=O)[C@H](Cc1ccc2ccccc2c1)NC(=O)[C@H](Cc1ccc(OCCN)cc1)NC(=O)[C@H]1NC(=O)[C@H](CCC(N)=O)NC(=O)[C@H](Cc2c[nH]c3c(C)cccc23)NC(=O)[C@H]([C@@H](C)O)NC(=O)[C@H](CC(N)=O)NC(=O)[C@@H](NC(C)=O)C(C)(C)SSC1(C)C)C(=O)N[C@@H](CCCNC(N)=O)C(=O)NCCC(N)=O", "IL-23R (Homo sapiens)", "10 to 100 nM"]
]}

Could you now consider this next compound?
Endpoint output: IC50 of CC(=O)NCCCC[C@@H]1NC(=O)[C@H](Cc2c[nH]c3c(C)cccc23)NC(=O)[C@H]([C@@H](C)O)NC(=O)[C@H](CC(N)=O)NC(=O)[C@@H](NC(C)=O)C(C)(C)SSC(C)(C)[C@@H](C(=O)N[C@@H](Cc2c[nH]cn2)C(=O)N[C@@H](Cc2ccc3ccccc3c2)C(=O)N[C@@](C)(CCCCN)C(=O)N[C@@H](CCCCNC(C)=O)C(=O)N[C@@H](CC(N)=O)C(=O)N[C@H](CC(C)C)C(N)=O)NC1=O [compound 290] (Ac-[Pen]NT[Trp(7-Me)]K(Ac)[Pen]H[2Nal][αMeK]K(Ac)N[dL]-NH2; disulfide 1-6) . Value?
1 to 10 nM
